- assay_target: monkey GPC3 on HEK293T-monkey GPC3 cells (monkey)
- experiment_description: FACS on HEK293T-monkey GPC3 cells
I'd appreciate it if you could supply EC50 values for the items below.
Give bare numbers, in nM.

# binder, assay_value
data = [
    ("hAb001H2L1a (antibody, human IgG1, V domains shown) VH: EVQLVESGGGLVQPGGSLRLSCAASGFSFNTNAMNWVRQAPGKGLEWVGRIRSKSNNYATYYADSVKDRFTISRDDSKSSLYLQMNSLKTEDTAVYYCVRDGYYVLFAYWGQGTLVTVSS VL: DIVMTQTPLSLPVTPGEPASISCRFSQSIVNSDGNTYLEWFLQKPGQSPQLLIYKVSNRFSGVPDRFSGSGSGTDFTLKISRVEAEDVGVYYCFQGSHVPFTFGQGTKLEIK", 2.03),
    ("hAb005LH1L1a (antibody, human IgG1, V domains shown) VH: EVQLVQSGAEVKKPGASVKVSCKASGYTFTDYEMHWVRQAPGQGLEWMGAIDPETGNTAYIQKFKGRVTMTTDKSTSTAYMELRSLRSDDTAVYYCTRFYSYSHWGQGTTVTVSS VL: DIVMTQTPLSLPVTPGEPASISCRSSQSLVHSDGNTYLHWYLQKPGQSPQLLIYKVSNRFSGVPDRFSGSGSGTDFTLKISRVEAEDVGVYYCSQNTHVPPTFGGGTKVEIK", 71.6),
    ("hAb007LH2L1 (antibody, human IgG1, V domains shown) VH: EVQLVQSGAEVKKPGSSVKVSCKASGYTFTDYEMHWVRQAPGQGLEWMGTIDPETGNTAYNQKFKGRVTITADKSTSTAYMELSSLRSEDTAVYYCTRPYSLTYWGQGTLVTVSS VL: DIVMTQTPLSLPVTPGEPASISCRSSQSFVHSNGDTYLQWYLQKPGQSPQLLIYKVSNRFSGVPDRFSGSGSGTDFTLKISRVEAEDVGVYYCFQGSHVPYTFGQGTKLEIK", 14.8),
]

For each of the binders below, state EC50.
1. hAb006LH3L1d (antibody, human IgG1, V domains shown) VH: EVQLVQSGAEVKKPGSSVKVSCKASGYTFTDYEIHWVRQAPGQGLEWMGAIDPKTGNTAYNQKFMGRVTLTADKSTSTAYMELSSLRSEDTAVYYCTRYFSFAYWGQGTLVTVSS VL: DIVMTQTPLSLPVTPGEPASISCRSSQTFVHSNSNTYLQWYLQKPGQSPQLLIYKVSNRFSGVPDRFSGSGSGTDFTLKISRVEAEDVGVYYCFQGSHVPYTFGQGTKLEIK
2. hAb003LH2L1a (antibody, human IgG1, V domains shown) VH: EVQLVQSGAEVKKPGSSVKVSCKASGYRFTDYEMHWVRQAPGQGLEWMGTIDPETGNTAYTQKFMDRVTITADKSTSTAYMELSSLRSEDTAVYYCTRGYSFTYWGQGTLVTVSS VL: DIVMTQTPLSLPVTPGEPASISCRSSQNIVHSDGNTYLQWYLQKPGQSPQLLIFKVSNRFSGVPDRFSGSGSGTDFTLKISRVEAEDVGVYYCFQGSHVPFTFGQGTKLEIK
3. hAb003LH3L1a (antibody, human IgG1, V domains shown) VH: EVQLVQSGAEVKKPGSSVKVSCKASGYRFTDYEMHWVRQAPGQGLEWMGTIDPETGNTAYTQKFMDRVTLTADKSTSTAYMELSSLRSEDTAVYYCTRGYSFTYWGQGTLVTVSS VL: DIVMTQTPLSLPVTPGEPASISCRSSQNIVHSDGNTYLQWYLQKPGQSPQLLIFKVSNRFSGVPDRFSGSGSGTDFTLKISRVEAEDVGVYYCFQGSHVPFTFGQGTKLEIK

1: 6.16; 2: 3.09; 3: 3.27

Hey, just so you know, these numbers are from patent US20260116991A1.
